Recorded values, source PubChem BioAssay AID1159580.

Assay: chemical genetic growth profiling, strain panel (AID 1159580);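 also: tested at 20 µM; growth read once vehicle control cultures reached saturation at 30 °C; 1 = growth at the plate median or of vehicle wells; lower values mean less growth of the strain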
Settings: S. cerevisiae deletion strains, growth OD, locus YLR320W, strain mms22
About 2,000 (36%) of roughly 5,500 compounds were called active. About 18% were inconclusive and are not listed. Rule as the data show it: active = normalized growth mostly below about 0.91 (no sharp cut-off); inconclusive = no clear call, values can overlap the other calls; inactive = mostly above about 0.92. This is one part of the list.
Please answer using one outcome listed in 1 (yes) for active, 0 (no) for inactive

Use the examples below as a reference point.
[
  {
    "compound": "CN(C)CCOc1ccc(/C(=C(/CCCl)c2ccccc2)c2ccccc2)cc1",
    "class": "1 (yes)"
  },
  {
    "compound": "CN(C)CCOC(C)(c1ccccc1)c1ccccn1 (stereo unspecified)",
    "class": "0 (no)"
  },
  {
    "compound": "CN[C@H](CC(=O)O)C(=O)O",
    "class": "0 (no)"
  },
  {
    "compound": "CCN(CC)CCOc1ccc2c(c1)C(=O)c1cc(OCCN(CC)CC)ccc1-2",
    "class": "0 (no)"
  },
  {
    "compound": "CCOC(=O)c1oc2c(OC)c(O)cc(O)c2c(=O)c1-c1cc(OC)c(OC)c(OC)c1",
    "class": "0 (no)"
  }
]

Hi, sorry to bother you, what did the test record for CCCCC1=NC2(CCCC2)C(=O)N1Cc1ccc(-c2ccccc2-c2nn[nH]n2)cc1 ?
0 (no)

Dear all, I need the recorded test outcome for C1CCN2CC3CC(CN4CCCCC34)C2C1 (stereo unspecified) , thank you.
0 (no)

# lookup: test call for CCC(Cc1c(I)cc(I)c(N)c1I)C(=O)O (stereo unspecified)
1 (yes)

Assay result, entry Nc1ccc(C(=O)NCC(=O)O)cc1 — outcome?
0 (no)

How was COc1cc2c(c(OC)c1OC)-c1ccc(OC)c(=O)cc1[C@@H](NC(C)=O)CC2 classified in this test?
0 (no)

Hey, what did the test say about CC/C(=C(\c1ccccc1)c1ccc(OCCN(C)C)cc1)c1ccccc1 ?
1 (yes)

Could you please tell me the result logged for CN/C(=C\[N+](=O)[O-])NCCSCc1ccc(CN(C)C)o1 in this assay?
0 (no)

State the result this test recorded for O=C1CCCC2C3CC(CN12)[C@@H]1CCCCN1C3 (stereo partly specified) .
0 (no)

I'd appreciate the recorded outcome for COc1cc(C(=O)NCc2ccc(OCCN(C)C)cc2)cc(OC)c1OC from this test.
0 (no)

Returns: the outcome recorded for C=C(NC(=O)C(=C)NC(=O)c1csc(C2=NC3c4csc(n4)C4NC(=O)c5csc(n5)C(C(C)(O)C(C)O)NC(=O)C5CSC(=N5)C(=CC)NC(=O)C(C(C)O)NC(=O)c5csc(n5)C3(CC2)NC(=O)C(C)NC(=O)C(=C)NC(=O)C(C)NC(=O)C(C(C)CC)NC2C=Cc3c(C(C)O)cc(nc3C2O)C(=O)OC4C)n1)C(N)=O (stereo unspecified) in this assay.
0 (no)

# lookup: test call for COc1cc(OC)c2c(=O)c(-c3ccccc3)c(C)oc2c1OC
0 (no)

What was the test verdict on CCN(CC)CCNC(=O)c1cc(S(C)(=O)=O)ccc1OC ?
0 (no)

---

Assay: chemical genetic growth profiling, strain panel (AID 1159580);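 also: tested at 20 µM; growth read once vehicle control cultures reached saturation at 30 °C; 1 = growth at the plate median or of vehicle wells; lower values mean less growth of the strain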
Conditions: S. cerevisiae deletion strains, growth OD, locus YOR083W, strain WHI5, hits give low values
Out of some 5,500 compounds screened, about 2,000 (36%) were called active. About 18% were inconclusive and are not listed. This is one part of the list.
Measured normalized growth of individual entries
Form field (numeric): enter value without unit.

Before answering, review these 6 worked examples.
[
  {
    "compound": "O=C(O)CF",
    "normalized growth": 0.992
  },
  {
    "compound": "Cc1occc(=O)c1O",
    "normalized growth": 0.952
  },
  {
    "compound": "CC(=O)c1c(O)c(C)c(O)c2c1OC1=CC(=O)C(C(C)=O)C(=O)C12C (stereo not drawn)",
    "normalized growth": 0.859
  },
  {
    "compound": "O=C(O)CCCCC1CCSS1 (stereo not drawn)",
    "normalized growth": 0.989
  },
  {
    "compound": "NCCCC[C@H](N[C@@H](CCc1ccccc1)C(=O)O)C(=O)N1CCC[C@H]1C(=O)O",
    "normalized growth": 1.01
  },
  {
    "compound": "CCCCC(CC)CN1CN(CC(CC)CCCC)CC(C)(N)C1 (stereo not drawn)",
    "normalized growth": 0.0602
  }
]

Would you kindly share the measured normalized growth for CC(=O)Oc1ccc(Cl)c2cccnc12 ?
0.0594

What normalized growth value was documented for this compound, CCN(CC)CCNC(=O)c1cc(S(C)(=O)=O)ccc1OC ?
0.94

# get_value(readout='normalized growth', item= O[N+]1=CC=CCC1=S.On1ccccc1=S.[Zn] )
0.0734

// normalized growth lookup, key: CC(C)NCC(O)c1ccc2ccccc2c1 (stereo not drawn)
0.991

So what does the record say about normalized growth for C[n+]1cccc(C(=O)[O-])c1 ?
0.992

Please report the recorded normalized growth for CC(C)(C)NCC(O)c1ccccc1Cl (stereo not drawn) .
1.01

Need normalized growth, item Cc1ccsc1/C=C/C1=NCCCN1C
0.998

---

Below, each of the compounds is paired with its reported normalized growth value.
Assay: chemical genetic growth profiling, strain panel (AID 1159580);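 also: tested at 20 µM; growth read once vehicle control cultures reached saturation at 30 °C; 1 = growth at the plate median or of vehicle wells; lower values mean less growth of the strain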
Conditions: S. cerevisiae strains, growth OD, strain wild type, hits give low values
Out of some 5,500 compounds screened, about 2,000 (36%) were called active. Another 18% or so got no clear call; they are omitted. Some of the results follow.
Keep it simple and answer with nothing but the number.

Below, each entry is followed by its recorded normalized growth result.
[
  {
    "substance.smiles": "CCN(CC)CCOc1ccc2c(c1)C(=O)c1cc(OCCN(CC)CC)ccc1-2",
    "normalized growth": 0.995
  },
  {
    "substance.smiles": "CCN(CC)CCOc1ccc(/C(=C(\\Cl)c2ccccc2)c2ccccc2)cc1",
    "normalized growth": 0.0486
  },
  {
    "substance.smiles": "C1CCN2C[C@@H]3C[C@H](CN4CCCC[C@@H]34)[C@H]2C1",
    "normalized growth": 1.02
  },
  {
    "substance.smiles": "CC/C(=C(\\c1ccccc1)c1ccc(OCCN(C)C)cc1)c1ccccc1",
    "normalized growth": 0.0464
  },
  {
    "substance.smiles": "COc1ccc(C(Cl)=C(c2ccc(OC)cc2)c2ccc(OC)cc2)cc1",
    "normalized growth": 1.02
  }
]

Can you look up the measured normalized growth of NCCCC[C@H](N[C@@H](CCc1ccccc1)C(=O)O)C(=O)N1CCC[C@H]1C(=O)O for me?
0.982

normalized growth for COc1cc(C(=O)NCc2ccc(OCCN(C)C)cc2)cc(OC)c1OC ?
0.979

What measured normalized growth goes with C/C=C/c1ccc2c(c1)OCO2 ?
1.01

Any idea what normalized growth was measured for Cc1ccsc1/C=C/C1=NCCCN1C ?
1.01

// normalized growth lookup, key: CCOc1ccc(/C=C(\C)[N+](=O)[O-])cc1OC
0.0825

Value lookup for normalized growth; key = CC(=O)N/C(=C/c1ccc2c(c1)OCO2)C(=O)O
1.02

---

Test: chemical genetic growth profiling, strain panel (AID 1159580);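 also: tested at 20 µM; growth read once vehicle control cultures reached saturation at 30 °C; 1 = growth at the plate median or of vehicle wells; lower values mean less growth of the strain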
Settings: S. cerevisiae deletion strains, growth OD, locus YMR219W, strain ESC1
The whole screen tested about 5,500 compounds, of which about 2,000 (36%) were called active. Roughly 18% stayed inconclusive and do not appear here. No stated cut-off is given here; in the data, active means normalized growth mostly below about 0.91 (no sharp cut-off); inconclusive means no clear call, values can overlap the other calls; inactive means mostly above about 0.92. This is one part of the list.
Lab note: assign the record to one of t for active, f for inactive

[
  {
    "compound": "CCCc1cc(Br)c(-n2cccc2)c(Br)c1",
    "class": "f"
  }
]

Tell me the assay call for CCCCCCNC(=O)NCCCCCC please.
t

Assay result, entry NC(=S)N/N=C\c1cc(F)cc(F)c1 — outcome?
f

What classification did COc1cccc(C2C3=C(CC(C)(C)CC3=O)OC3=C2C(=O)CC(C)(C)C3)c1O end up with in this test?
f

Please share the test call associated with NC(=O)c1ccccc1N1CCCCC1 .
f

Given Fc1cc2n[nH]nc2cc1Cl , state the outcome it received in this test.
f

Each compound tested received a call. Report the one for CN(/N=C\c1ccccc1)c1ncc(C(F)(F)F)cc1Cl .
f

Lab log entry: O=C(NC(=S)Nc1ccccn1)c1ccccc1 — outcome as called in the assay?
f

# outcome recorded in this test, key = CSC1=NCN(Cc2ccccc2)CN1
f

Please let me know the test result on file for CC(C)N(Cc1ccc(N(C)C)cc1)S(=O)(=O)c1cc(Cl)c(Cl)cc1Cl .
f

Tell me the assay call for O=[N+]([O-])c1ccc(SC2=NCCN2)c(Cl)c1 please.
f

Assay outcome for Cc1[nH]ncc1-c1ccccc1 : what was it?
f

What classification did O=C1OC2COC(=O)C2C=C1NC(=O)c1ccc(Cl)cc1 (stereo not given) end up with in this test?
t

Recorded test outcome, item CCSc1nnc(N)s1
f

Query: recorded result category for Clc1cc(Cl)c(Cl)c(-n2cccc2)c1Cl in this test
f

Outcome? NC(=NS(=O)(=O)c1cc(C(F)(F)F)cc(C(F)(F)F)c1)c1cccs1
f

Outcome logged for O=S(=O)(N/N=C\c1ccc(Cl)cc1)c1ccc(-c2ccccn2)s1 in this assay:
f

For this compound, state the assay outcome: Clc1cc(Cl)cc(-n2cccc2)c1
f

// param item: COC(=O)c1ccc(-c2ccc(Cl)cc2)s1 ; yields the recorded call
t

Outcome? CCCCNC(=O)NCCSCc1ccco1
f
